- Subject of test: aldose reductase enzyme (Homo sapiens, UniProt P15121)
- Construct: partially purified aldose reductase enzyme obtained from human placenta; from tissue; host or cells: human placenta
- Run description: in vitro inhibition of aldose reductase enzyme activity (procedure of U.S. Pat. No. 3,821,383, based on Hayman et al.)
- Format: biochemical
- Applied conditions: read-out: IC50, inhibition concentration calculated to show 50% inhibition of enzyme activity; partially purified aldose reductase from human placenta

Compound	IC50
C[C@@H]1C[C@@](O)(CC(=O)O)c2cc(Cl)ccc2O1 (relative stereo)	~860 nM
